Tested on: COLO 205
Experiment: NCI tumour cell line growth inhibition, 48 h
Activity calls are given as the source filed them. Rule as the data show it: active = GI50 up to about 1.1 µM and inactive = higher.
The reply should be one of these categories: active, inactive

Asked: What classification did "CC1=NN(c2nc(N)nc(C/C(N)=N/O)n2)C(C)(C)C1" end up with in this test?
Given back: inactive

Asked: // outcome(item) with item = "N#CC1=CNc2sccc2S1(=O)=O"
Given back: inactive

Asked: I'd appreciate the recorded outcome for C=C(C)[C@H]1CC[C@@]23O[C@@H]2[C@@H](C[C@@]2(C)CC(=O)[C@H](CC(=O)C1)O2)OC(=O)[C@@]12CC[C@H](C(=C)C)CC(=O)C[C@H]4O[C@](C)(CC4=O)C[C@@H](OC3=O)[C@@H]1O2 [SINGARDIN] from this test.
Given back: inactive

Asked: Identify the outcome logged in this assay for the compound shown: "CCOC(=O)NCC(=O)NCC(=O)NCC(N)=O"
Given back: inactive

Asked: Answer briefly: the call reported for CC1CCC23COC(=O)C2C(O)CCC3C1(C)CC(O)c1ccoc1 (stereo not drawn) in this assay.
Given back: inactive

Asked: Hey, what did the test say about O=C(O)C1CCC(=O)N1C(=O)COc1cc(Cl)c(Cl)cc1Cl (stereo not drawn) ?
Given back: inactive

Asked: Which outcome was entered for the compound "Cc1nc2nc3c(ncn3COCCO)c(O)n2c1C(c1ccccc1)(c1ccccc1)c1ccccc1" in this test?
Given back: inactive

Asked: Which result was noted for this compound in the test: C/C=C(/CBr)CCC(Br)C(C)(C)Cl.C/C=C(\CBr)CCC(Br)C(C)(C)Cl (stereo not drawn)
Given back: inactive

Asked: Please share the test call associated with COc1ccc(COCC(Cn2ccnc2)OCc2ccc(C(=O)O)cc2)cc1 (stereo not drawn) .
Given back: inactive

Asked: GET /call?item= Nc1ccc2c(c1)N(C(=O)CCCC(=O)N1CC(CCl)c3ccc(N)cc31)CC2CCl (stereo not drawn) returns the recorded outcome of this test.
Given back: active

Asked: Hey, what did the test say about "Cc1ccc(C(=O)Nc2ccc(S(=O)(=O)O)c3cc(S(=O)(=O)O)cc(S(=O)(=O)O)c23)cc1N" ?
Given back: inactive

Asked: Any idea what this test logged for COc1ccc(OC)c2c1C(=O)C1CC1(Br)C2=O (stereo not drawn) ?
Given back: inactive

Asked: What call does the record list for "Cc1nc(=O)n2c(C)n[nH]c2c1C(=O)Nc1cc(Cl)cc(Cl)c1" ?
Given back: inactive

Asked: Hi, sorry to bother you, what did the test record for "COc1cccc(Nc2nc(N)nc(N)c2N)c1" ?
Given back: inactive

Asked: What outcome does the record of this test show for "COc1cc(/C=C2\C[C@H]3[C@@H]4CC=C5C=C(N6CCCC6)CC[C@]5(C)[C@H]4CC[C@]3(C)C2=O)cc(OC)c1OC" ?
Given back: inactive

Asked: Record lookup: outcome of this test for "Cn1cnc2[nH]c(=O)[nH]c(=S)c21" ?
Given back: inactive

Asked: Check the results log: what was the call for "COc1ccc(-c2nc(-c3cnccn3)n(C/C=C/c3ccccc3)n2)cc1" ?
Given back: inactive

Asked: Could you kindly confirm the outcome this assay logged for "CC1(C)S[C@@H]2[C@H](NC(=O)/C=C/c3ccccc3)C(=O)N2[C@H]1C(=O)O" ?
Given back: inactive

Asked: Hello, I am checking results. What call was entered for "O=C1C=Cc2c(Cl)sc(Cl)c21" ?
Given back: inactive

Asked: Which outcome was entered for the compound C=C(Br)C(Cl)(CBr)CCC(Br)C(C)(C)Cl (stereo not drawn) in this test?
Given back: inactive

Asked: Hi, do you know how CC1(CCCO)CCCCCC(C)(CCCO)C1=O (stereo not drawn) came out in this test?
Given back: inactive
